Molecular target: iPHF (UniProt P10636-8 2-441)
Sequence (P10636 other isoform, or with tags, fused parts or gaps): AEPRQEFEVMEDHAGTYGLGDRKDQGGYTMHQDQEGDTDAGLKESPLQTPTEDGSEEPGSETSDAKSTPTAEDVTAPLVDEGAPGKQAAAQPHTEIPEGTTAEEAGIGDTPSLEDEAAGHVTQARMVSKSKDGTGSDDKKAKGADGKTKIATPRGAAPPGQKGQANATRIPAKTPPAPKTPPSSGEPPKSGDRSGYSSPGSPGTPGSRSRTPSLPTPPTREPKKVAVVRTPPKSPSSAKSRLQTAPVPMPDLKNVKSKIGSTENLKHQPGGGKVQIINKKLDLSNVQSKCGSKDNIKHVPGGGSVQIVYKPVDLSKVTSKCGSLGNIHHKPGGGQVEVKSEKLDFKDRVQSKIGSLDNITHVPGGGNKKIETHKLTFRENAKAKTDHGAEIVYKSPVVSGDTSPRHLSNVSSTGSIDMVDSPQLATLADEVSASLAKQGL
Test: BLI (Octet), antibody on biosensor tip
Exercise: for every item that follows, state its recorded Kd.
Record the value in nM, omitting the unit from your answer.

[Q] What Kd value was documented for this binder, VY014 (antibody, V domains shown) VH: EVQLVESGGGLVQPGGSLRLSCAASGFTFNNYDMHWVRQAAGKGLEWVSTIGAAGDTYYPGSVKGRFIISRENAKNSLYLQMNSLRAGDTAVYYCARAGETLEGATIGYYYGMDVWGQGTTVTVSS VL: DILMTQSPLSLPVTPGEPASISCRSSQSLLHSNGYNYLDWYLQKPGQSPQLLIYLGSNRASGVPDRFSGSGSGTDFTLKFSRVEAEDVGLYYCMQALQIPLTFGGGTKVEIK ?
[A] 5.3

[Q] Proceed to VY004 (antibody, V domains shown) VH: EVQLVESGGGLVQAGGSLRLSCAASGFTFSDYSMNWVRQAPGKGLEWVSYIRSSSSIIYYADSVKGRFTISRDNAKNSLHLQMNSLRDEDTAVYYCARRGHFDYWGQGTLVTVSS VL: EIVLTQSPATLSLSPGERATLSCRASQSVSDYLAWYQQKPGQAPRLFIYDVSKRATGIPARFSGSGSGTDFTLTISSLEPEDFAVYYCQQRSNWPLTFGGGTKVEIK
[A] 3.7

[Q] Proceed to VY020 (antibody, V domains shown) VH: EVQLVESGGGLVQPGGSLRLSCAASGFTFSSYSMNWVRQAPGKGLEWISYISSSNSTIKYADSVKGRFTISRDNAKNSLYLQMNSLRDEDTAVYYCARRSLGDYWGQGTLVIVSS VL: EIVLTQSPATLSLSPGERATLSCRASQSVSSYLAWYLQKPGQAPRLLIYDVSNRATGIPARFSGSGSGTDFTLTISRLEPEDFAVYYCQQRRNWPYTFGQGTKLEIK
[A] 2.6
